Data origin: ChEMBL document CHEMBL1131353

Target: Cholecystokinin receptor type A (Rattus norvegicus)
Sequence (P30551 whole entry): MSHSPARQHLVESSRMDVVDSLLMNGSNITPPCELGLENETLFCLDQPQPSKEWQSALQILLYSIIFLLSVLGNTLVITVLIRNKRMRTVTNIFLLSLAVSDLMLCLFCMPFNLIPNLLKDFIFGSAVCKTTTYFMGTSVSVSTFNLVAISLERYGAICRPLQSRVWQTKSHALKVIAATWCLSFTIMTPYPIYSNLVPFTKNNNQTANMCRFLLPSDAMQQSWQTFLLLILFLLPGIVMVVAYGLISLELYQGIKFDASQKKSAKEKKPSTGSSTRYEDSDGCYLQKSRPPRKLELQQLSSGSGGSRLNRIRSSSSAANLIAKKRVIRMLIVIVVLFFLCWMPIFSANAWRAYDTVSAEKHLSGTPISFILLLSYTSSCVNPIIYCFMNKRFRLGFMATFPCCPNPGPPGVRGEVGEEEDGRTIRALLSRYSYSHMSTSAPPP
measurementType: pIC50
# reply with the number alone; pIC50 is -log10 of concentration in mol/L

Here is how some compounds turned out for pIC50.
[[record]]
compound = "CN(C(=O)CN1C(=O)C(NC(=O)Nc2cccc(C(=O)c3ccccc3)c2)C(=O)N(c2ccccc2)c2ccccc21)c1ccccc1 (centres undefined)"
measvalue = 6.54

[[record]]
compound = "COc1ccc(N(C)C(=O)CN2C(=O)C(NC(=O)Nc3cccc(C(=O)c4ccccc4)c3)C(=O)N(c3ccccc3)c3ccccc32)cc1 (centres undefined)"
measvalue = 6.46

[[record]]
compound = "CC(C)N(C(=O)CN1C(=O)C(NC(=O)Nc2cccc(C(=O)c3ccccc3)c2)C(=O)N(c2ccccc2)c2ccccc21)c1ccccc1 (centres undefined)"
measvalue = 6.80

[[record]]
compound = "COc1ccc(N(C(=O)CN2C(=O)C(NC(=O)Nc3ccccc3)C(=O)N(c3ccccc3)c3ccccc32)C(C)C)cc1 (centres undefined)"
measvalue = 7.30


Consider the compound shown here: CC(C)N(C(=O)CN1C(=O)C(NC(=O)Nc2cccc(C3(C(F)(F)F)N=N3)c2)C(=O)N(c2ccccc2)c2ccccc21)c1ccccc1 (centres undefined) What is its recorded pIC50?
5.89

Consider the compound shown here: COc1ccc(N(C)C(=O)CN2C(=O)C(NC(=O)Nc3ccccc3)C(=O)N(c3ccccc3)c3ccccc32)cc1 (centres undefined) What is its recorded pIC50?
6.41

----------
Biological target: Cholecystokinin receptor type A (Rattus norvegicus) (UniProt P30551)
Assay: In vitro efficacy was measured in rat Cholecystokinin type A receptor at 1.0 uM
# key: entry, value: Efficacy
Write your answer as a measured quantity: the number, then the unit.

Here is how some molecules turned out for Efficacy.
[[record]]
molecule = "CC(C)N(C(=O)CN1C(=O)C(NC(=O)Nc2cccc(C(=O)c3ccccc3)c2)C(=O)N(c2ccccc2)c2ccccc21)c1ccccc1 (stereo not given)"
measvalue = "64%"

[[record]]
molecule = "COc1ccc(N(C(=O)CN2C(=O)C(NC(=O)Nc3cccc(C4(C(F)(F)F)N=N4)c3)C(=O)N(c3ccccc3)c3ccccc32)C(C)C)cc1 (stereo not given)"
measvalue = "75%"

[[record]]
molecule = "COc1ccc(N(C(=O)CN2C(=O)C(NC(=O)Nc3cccc(C(=O)c4ccccc4)c3)C(=O)N(c3ccccc3)c3ccccc32)C(C)C)cc1 (stereo not given)"
measvalue = "68%"

[[record]]
molecule = "CC(C)N(C(=O)CN1C(=O)C(NC(=O)Nc2cccc(C3(C(F)(F)F)N=N3)c2)C(=O)N(c2ccccc2)c2ccccc21)c1ccccc1 (stereo not given)"
measvalue = "47%"


Let us move to another entry and its Efficacy.
Consider the molecule shown here: CC(C)N(C(=O)CN1C(=O)C(NC(=O)Nc2ccccc2)C(=O)N(c2ccccc2)c2ccccc21)c1ccccc1 (stereo not given) What is its recorded Efficacy?
83%
